- system.under.test: Mouse ACVR2A (mouse, UniProt P27038 20-135, limits assumed); also: test concentration or dose not given here
- Sequence (P27038 20-135 limits assumed): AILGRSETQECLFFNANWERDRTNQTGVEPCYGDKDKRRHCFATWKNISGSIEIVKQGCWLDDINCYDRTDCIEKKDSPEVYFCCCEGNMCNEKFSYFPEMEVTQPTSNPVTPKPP
- test: ELISA
optical density strictly under 3 OD means fulfilled; at 3 OD or over means not fulfilled.

Look over these answered cases.
| binder | answer.label |
| --- | --- |
| 369_F11 (antibody, V domains shown) VH: EVQLLESGGGLVQPGGSLRLSCAASGFTFDSYGMNWVRQAPGKGLEWVSNINYNSGYKSYADSVKGRFTISRDNSKNTLYLQMNSLRAEDTAVYYCARSANWHDTALDYWGQGTLVTVSS VL: DIQMTQSPSSLSASVGDRVTITCRASQSIISYLNWYQQKPGKAPKLLIYAATSRASGVPSRFSGSGSGTDFTLTISSLQPEDFATYYCQQSYDLPLTFGGGTKVEIK | not fulfilled |
| 373_G10 (antibody, V domains shown) VH: EVQLLESGGGLVQPGGSLRLSCAASGFTFSDYGMNWVRQAPGKGLEWVSNINYNGGYKSYADSVKGRFTISRDNSKNTLYLQMNSLRAEDTAVYYCARSANWHDTALDYWGQGTLVTVSS VL: DIQMTQSPSSLSASVGDRVTITCRASQSIVSYVNWYQQKPGKAPKLLIYAATSRASGVPSRFSGSGSGTDFTLTISSLQPEDFATYYCQQSYDLPLTFGGGTKVEIK | not fulfilled |
| 367_F03 (antibody, V domains shown) VH: EVQLLESGGGLVQPGGSLRLSCAASGFTFSSYSMNWVRQAPGKGLEWVAGINYNSGYKSYADSVKGRFTISRDNSKNTLYLQMNSLRAEDTAVYYCARSANWHDTALDYWGQGTLVTVSS VL: DIQMTQSPSSLSASVGDRVTITCRASQSILSYVNWYQQKPGKAPKLVIYAATSLASGVPSRFSGSGSGTDFTLTISSLQPEDFATYYCQQSDDTPLTFGGGTKVEIK | fulfilled |

Prompt line: is_below(optical density, 3 OD) for 373_D04 (antibody, V domains shown) VH: EVQLLESGGGLVQPGGSLRLSCAASGFTFDSYSMNWVRQAPGKGLEWVSGINYNSGYKGYADSVKGRFTISRDNSKNTLYLQMNSLRAEDTAVYYCARSANWHDTALDYWGQGTLVTVSS VL: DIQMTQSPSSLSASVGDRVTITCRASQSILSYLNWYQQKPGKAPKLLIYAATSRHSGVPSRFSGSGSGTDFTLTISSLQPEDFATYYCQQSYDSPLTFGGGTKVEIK ?
Response line: not fulfilled

Prompt line: is_below(optical density, 3 OD) for 370_A04 (antibody, V domains shown) VH: EVQLLESGGGLVQPGGSLRLSCAASGFTFDSYSMNWVRQAPGKGLEWVSGINYNGGYTSYADSVKGRFTISRDNSKNTLYLQMNSLRAEDTAVYYCARSANWHDTALDYWGQGTLVTVSS VL: DIQMTQSPSSLSASVGDRVTITCRASQSIITYLNWYQQKPGKAPKLLIYAATSRASGVPSRFSGSGSGTDFTLTISSLQPEDFATYYCQQSYDNPLTFGGGTKVEIK ?
Response line: fulfilled

Data credit: patent US20210380703A1
